- test.settings: in sec-butanol, 311.15 K
measured.attribute: solubility (mole fraction)

Could you tell me which solubility (mole fraction) is on file for Cc1cccc(C(=O)O)c1[N+](=O)[O-] ?
0.0314

###

- test.settings: in sec-butanol, 292.45 K
measured.attribute: solubility (mole fraction)
Answer field: number only, no words.

So what does the record say about solubility (mole fraction) for Cc1ccc([N+](=O)[O-])c(C(=O)O)c1 ?
0.199

###

- test.settings: in sec-butanol, 343.55 K
measured.attribute: solubility (mole fraction)

For the molecule Cc1cc(C(=O)O)ccc1[N+](=O)[O-] , what solubility (mole fraction) is on record?
0.0667

###

- test.settings: in sec-butanol, 304.55 K
measured.attribute: solubility (mole fraction)
Answer using only a numeral; do not append any unit.

Param item = Cc1cc(C(=O)O)ccc1[N+](=O)[O-] ; retrieve measured solubility (mole fraction).
0.0142

###

- test.settings: in n-butanol, 316.15 K
measured.attribute: solubility (mole fraction)
Give the value as a plain number.

Consider the molecule Cc1cccc(C(=O)O)c1[N+](=O)[O-] and give its measured solubility (mole fraction).
0.0304

###

- test.settings: in sec-butanol, 321.15 K
measured.attribute: solubility (mole fraction)
Just the number, please.

Fill blank: measured solubility (mole fraction) of the compound Cc1ccc([N+](=O)[O-])c(C(=O)O)c1 is ____.
0.329

###

- test.settings: in isobutanol, 333.45 K
measured.attribute: solubility (mole fraction)
Answer with a bare number; do not write a unit.

Requested field: solubility (mole fraction). Item: Cc1cccc(C(=O)O)c1[N+](=O)[O-]
0.0486

###

- test.settings: in n-butanol, 312.55 K
measured.attribute: solubility (mole fraction)
Just the number, please, no unit after it.

Value lookup for solubility (mole fraction); key = Cc1cccc(C(=O)O)c1[N+](=O)[O-]
0.0264

###

- test.settings: in isobutanol, 333.95 K
measured.attribute: solubility (mole fraction)

What value of solubility (mole fraction) has been recorded for this entry: Cc1cc(C(=O)O)ccc1[N+](=O)[O-]
0.0283

###

- test.settings: in n-butanol, 328.25 K
measured.attribute: solubility (mole fraction)
Could you keep your reply to the number by itself?

Using the record for Cc1cccc(C(=O)O)c1[N+](=O)[O-] , report its solubility (mole fraction).
0.0466

###

- test.settings: in n-butanol, 307.15 K
measured.attribute: solubility (mole fraction)
A bare number is all that is needed in reply.

For Cc1ccc([N+](=O)[O-])c(C(=O)O)c1 , what is its reported solubility (mole fraction)?
0.237

###

- test.settings: in isobutanol, 311.15 K
measured.attribute: solubility (mole fraction)
Answer with a bare number; do not write a unit.

Given the entry Cc1ccc([N+](=O)[O-])c(C(=O)O)c1 , report its measured solubility (mole fraction).
0.173

Request the reported solubility (mole fraction) associated with Cc1cccc(C(=O)O)c1[N+](=O)[O-]
0.0193

###

- test.settings: in n-butanol, 290.65 K
measured.attribute: solubility (mole fraction)
Please reply with the value in numeric form only.

Sample Cc1ccc([N+](=O)[O-])c(C(=O)O)c1 — what was its solubility (mole fraction)?
0.167

###

Please provide measured solubility (mole fraction) for the entries that follow.
- test.settings: in sec-butanol, 326.15 K

Reported solubility (mole fraction), compound Cc1cc(C(=O)O)ccc1[N+](=O)[O-] : ____
0.0359

Which solubility (mole fraction) is listed for Cc1ccc([N+](=O)[O-])c(C(=O)O)c1 ?
0.352
